assay: viability profiling in RPMI8226 myeloma cells – cell-based, resazurin fluorescence, basal, 24 h, PK04 Diversity Set, profiling panel (AID 1180); conditions: higher = more signal;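 also: RPMI8826 multiple myeloma cell line at 5000 cells per well; test concentration not given here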
Short version: z-score at least -0.3 is true, less is false.

Identify whether the reported z-score of the following molecule is -0.3 or greater: `O=C1O[C@H](c2ccccc2)[C@H](c2ccccc2)N2[C@H]1[C@@H](C(=O)O)[C@]1(C(=O)Nc3ccc(C#CCCO)cc31)[C@H]2c1ccccc1OCCO` true

Identify whether the reported z-score of the following molecule is -0.3 or greater: `NCCCCCCNC(=O)[C@@H]1C[C@@H]2C(=O)N[C@@H](CCCCN)C(=O)N2[C@@H]1c1ccc(O)cc1` false

Identify whether the reported z-score of the following molecule is -0.3 or greater: `COCCCNC(=O)[C@@]1(Sc2ccc(C)cc2)CC(=O)N(C2Cc3ccccc3C2)[C@@H]1c1ccc(CO)cc1` true

Identify whether the reported z-score of the following molecule is -0.3 or greater: `C=CCOC(=O)[C@@H]1[C@H]2C(=O)O[C@H](c3ccccc3)[C@H](c3ccccc3)N2[C@H](c2ccc(OCCOC(=O)[C@@H]3C[C@@H]4C(=O)N[C@@H](CCCC[N+](C)(C)C)C(=O)N4[C@@H]3c3ccc(O)cc3)cc2)[C@@]12C(=O)Nc1ccc(I)cc12` true

Identify whether the reported z-score of the following molecule is -0.3 or greater: `COc1ccc([Si](C)(C)[C@@H]2[C@@H](CCO)O[C@]3(C(=O)N(Cc4ccccc4)c4ccc(NC(=O)[C@H](C)O)cc43)[C@H]2C)cc1` false

Identify whether the reported z-score of the following molecule is -0.3 or greater: `NCCCCCNC(=O)[C@@H]1C[C@@H]2C(=O)N[C@@H](CCCCN)C(=O)N2[C@@H]1c1ccc(O)cc1` true

Identify whether the reported z-score of the following molecule is -0.3 or greater: `NCCCCCNC(=O)[C@H]1C[C@H]2C(=O)N3CCC[C@H]3C(=O)N2[C@H]1c1cccc(OCCO)c1` true

Identify whether the reported z-score of the following molecule is -0.3 or greater: `O=C1O[C@@H](c2ccccc2)[C@@H](c2ccccc2)N2[C@@H](c3ccc(O)cc3)[C@]3(C(=O)Nc4ccc(C#CCCO)cc43)[C@@H](C(=O)N3CCN(c4ncccn4)CC3)[C@H]12` true

Identify whether the reported z-score of the following molecule is -0.3 or greater: CN1C2C=C(CCCO)C(C3C(=O)N(C(N)=O)C(=O)C32)C1C1CC1 (stereo not drawn) false

Identify whether the reported z-score of the following molecule is -0.3 or greater: `COCCOC(=O)N1C(=O)[C@@]2(c3cc(C#CC4=CCCCC4)ccc31)[C@H](c1ccccc1OCCO)N1[C@H](c3ccccc3)[C@H](c3ccccc3)OC(=O)[C@H]1[C@@H]2C(=O)NC[C@H](O)c1ccccc1` false

Identify whether the reported z-score of the following molecule is -0.3 or greater: `O=C1N(Cc2ccccc2)c2ccccc2C[C@]12N=C(c1ccc(OCCCO)cc1)O[C@@H]2c1ccccc1` false

Identify whether the reported z-score of the following molecule is -0.3 or greater: `CCCC#C[Si](O[C@H](CC)c1cn([C@H](C)c2ccccc2)nn1)(C(C)C)C(C)C` true

Identify whether the reported z-score of the following molecule is -0.3 or greater: `C=C(/C(=C/C[C@H](OC(C)=O)c1ccc(CO)o1)c1cnc2ccccc2c1)C(C)C` false

Identify whether the reported z-score of the following molecule is -0.3 or greater: `CN(C)C(=O)[C@]1(CCC(=O)OC(C)(C)C)N=C(c2ccc(OCCCO)cc2)O[C@@H]1c1ccccc1CN=[N+]=[N-]` true

Identify whether the reported z-score of the following molecule is -0.3 or greater: O=C(C1N=C(c2ccc(OCCCO)cc2)N(c2ccccc2)O1)N1CCCCC1 (stereo not drawn) true

Identify whether the reported z-score of the following molecule is -0.3 or greater: `C=C(COC)/C(=C/C[C@H](OC(=O)c1ccncc1)c1ccc(CO)o1)c1cnc2ccccc2c1` true

Identify whether the reported z-score of the following molecule is -0.3 or greater: CN(C)c1ccc(C(O)C2C=CC3C(=O)NC(=O)C3N2Nc2ccccn2)cc1 (stereo not drawn) false

Identify whether the reported z-score of the following molecule is -0.3 or greater: C=CCC(OC(C)=O)[C@@H]1[C@@H](N(Cc2ccc(-c3ccccc3)cc2)C(=O)c2ccc(-c3ccccc3)cc2)c2cc(OCCCO)ccc2N1C(=O)c1ccc2ccccc2c1 (stereo partly drawn) true

Identify whether the reported z-score of the following molecule is -0.3 or greater: `[N-]=[N+]=Nc1ccccc1C[C@@]1(C(N)=O)N=C(c2ccc(OCCCO)cc2)O[C@@H]1c1ccccc1N=[N+]=[N-]` false

Identify whether the reported z-score of the following molecule is -0.3 or greater: `CCOC(=O)[C@@H]1CCCCN1C(=O)C(=O)OC` false

Identify whether the reported z-score of the following molecule is -0.3 or greater: `CCOC(=O)C[C@H]1[C@H](OC(=O)c2ccccc2-c2ccccc2)[C@@H](NC(=O)c2ccc3ccccc3c2)c2cc(OCCCO)ccc2N1C(=O)c1ccccc1` true

Identify whether the reported z-score of the following molecule is -0.3 or greater: CCOc1cc(C(O)C2C=CC3C(=O)NC(=O)C3N2Nc2ccc(Cl)cc2Cl)ccc1O (stereo not drawn) false

Identify whether the reported z-score of the following molecule is -0.3 or greater: `COC(=O)[C@@]1(Cc2ccc(F)cc2)[C@H]2c3cc(C(=O)N4CCCC4)n(CCc4c[nH]c5ccccc45)c3C[C@H]2CN1C(=O)c1ccccc1` false

Identify whether the reported z-score of the following molecule is -0.3 or greater: CN1C(=O)C2C=CC(C(O)c3cccn3C)N(Nc3ccc([N+](=O)[O-])cc3[N+](=O)[O-])C2C1=O (stereo not drawn) false

Identify whether the reported z-score of the following molecule is -0.3 or greater: `C=CCNC(=O)[C@@H]1[C@H]2C(=O)O[C@H](c3ccccc3)[C@H](c3ccccc3)N2[C@H](c2ccccc2OCCO)[C@@]12C(=O)N(C(=O)OCCOC)c1ccc(C#CC3(O)CCCCCC3)cc12` false

Identify whether the reported z-score of the following molecule is -0.3 or greater: CC(C)c1ccc(NN2C(C(O)c3ccc(C#N)cc3)C=CC3C(=O)N(c4ccccc4)C(=O)C32)cc1 (stereo not drawn) false

Identify whether the reported z-score of the following molecule is -0.3 or greater: `COc1ccc([C@H]2OC[C@@H]3C[C@H](Cc4ccccc4)C(=O)N32)cc1` false
